# target system: UniProtKB P06239
# experimental protocol: KINOMEscan competition binding
# conditions used: compound 10.0 µM
reported endpoint: kinase still bound, per cent of control (%)

CCC(=O)N1CCN(c2ccc(-n3c(=O)ccc4cnc5ccc(-c6cnc7ccccc7c6)cc5c43)cc2C(F)(F)F)CC1
77
COC(=O)Nc1ccc(-c2nc(N3CCOCC3)c3cnn(C4CCN(C(=O)OC)CC4)c3n2)cc1
88
COc1ccc(-c2ccc3c(N4CCOCC4)nc(N4C[C@@H](C)O[C@@H](C)C4)nc3n2)cc1CO
98
CC(C)n1nc(-c2cc3cc(O)ccc3[nH]2)c2c(N)ncnc21
0.95

###

Overview of reported kinase still bound, per cent of control across a group of compounds:
# target system: AURKC (human) (UniProt Q9UQB9)
# Sequence (Q9UQB9 whole entry, looked up): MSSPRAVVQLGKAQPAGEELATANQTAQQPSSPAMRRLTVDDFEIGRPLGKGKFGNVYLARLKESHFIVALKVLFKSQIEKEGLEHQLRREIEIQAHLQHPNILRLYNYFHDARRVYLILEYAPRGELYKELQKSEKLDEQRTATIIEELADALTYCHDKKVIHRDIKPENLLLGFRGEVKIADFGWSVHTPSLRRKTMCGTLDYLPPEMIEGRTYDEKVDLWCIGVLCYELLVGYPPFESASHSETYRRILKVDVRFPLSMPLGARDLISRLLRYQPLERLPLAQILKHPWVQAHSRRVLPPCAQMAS
# experimental protocol: KINOMEscan competition binding
# conditions used: compound 10.0 µM
reported endpoint: kinase still bound, per cent of control

COC(=O)Nc1ccc(-c2nc(N3CCOCC3)c3cnn(C4CCN(C(=O)OC)CC4)c3n2)cc1
100%
COc1ccc(-c2ccc3c(N4CCOCC4)nc(N4C[C@@H](C)O[C@@H](C)C4)nc3n2)cc1CO
100%
CC(C)n1nc(-c2cc3cc(O)ccc3[nH]2)c2c(N)ncnc21
68%
CCC(=O)N1CCN(c2ccc(-n3c(=O)ccc4cnc5ccc(-c6cnc7ccccc7c6)cc5c43)cc2C(F)(F)F)CC1
91%

###

# target system: ALK (human) (UniProt Q9UM73)
# Sequence (Q9UM73 whole entry, looked up): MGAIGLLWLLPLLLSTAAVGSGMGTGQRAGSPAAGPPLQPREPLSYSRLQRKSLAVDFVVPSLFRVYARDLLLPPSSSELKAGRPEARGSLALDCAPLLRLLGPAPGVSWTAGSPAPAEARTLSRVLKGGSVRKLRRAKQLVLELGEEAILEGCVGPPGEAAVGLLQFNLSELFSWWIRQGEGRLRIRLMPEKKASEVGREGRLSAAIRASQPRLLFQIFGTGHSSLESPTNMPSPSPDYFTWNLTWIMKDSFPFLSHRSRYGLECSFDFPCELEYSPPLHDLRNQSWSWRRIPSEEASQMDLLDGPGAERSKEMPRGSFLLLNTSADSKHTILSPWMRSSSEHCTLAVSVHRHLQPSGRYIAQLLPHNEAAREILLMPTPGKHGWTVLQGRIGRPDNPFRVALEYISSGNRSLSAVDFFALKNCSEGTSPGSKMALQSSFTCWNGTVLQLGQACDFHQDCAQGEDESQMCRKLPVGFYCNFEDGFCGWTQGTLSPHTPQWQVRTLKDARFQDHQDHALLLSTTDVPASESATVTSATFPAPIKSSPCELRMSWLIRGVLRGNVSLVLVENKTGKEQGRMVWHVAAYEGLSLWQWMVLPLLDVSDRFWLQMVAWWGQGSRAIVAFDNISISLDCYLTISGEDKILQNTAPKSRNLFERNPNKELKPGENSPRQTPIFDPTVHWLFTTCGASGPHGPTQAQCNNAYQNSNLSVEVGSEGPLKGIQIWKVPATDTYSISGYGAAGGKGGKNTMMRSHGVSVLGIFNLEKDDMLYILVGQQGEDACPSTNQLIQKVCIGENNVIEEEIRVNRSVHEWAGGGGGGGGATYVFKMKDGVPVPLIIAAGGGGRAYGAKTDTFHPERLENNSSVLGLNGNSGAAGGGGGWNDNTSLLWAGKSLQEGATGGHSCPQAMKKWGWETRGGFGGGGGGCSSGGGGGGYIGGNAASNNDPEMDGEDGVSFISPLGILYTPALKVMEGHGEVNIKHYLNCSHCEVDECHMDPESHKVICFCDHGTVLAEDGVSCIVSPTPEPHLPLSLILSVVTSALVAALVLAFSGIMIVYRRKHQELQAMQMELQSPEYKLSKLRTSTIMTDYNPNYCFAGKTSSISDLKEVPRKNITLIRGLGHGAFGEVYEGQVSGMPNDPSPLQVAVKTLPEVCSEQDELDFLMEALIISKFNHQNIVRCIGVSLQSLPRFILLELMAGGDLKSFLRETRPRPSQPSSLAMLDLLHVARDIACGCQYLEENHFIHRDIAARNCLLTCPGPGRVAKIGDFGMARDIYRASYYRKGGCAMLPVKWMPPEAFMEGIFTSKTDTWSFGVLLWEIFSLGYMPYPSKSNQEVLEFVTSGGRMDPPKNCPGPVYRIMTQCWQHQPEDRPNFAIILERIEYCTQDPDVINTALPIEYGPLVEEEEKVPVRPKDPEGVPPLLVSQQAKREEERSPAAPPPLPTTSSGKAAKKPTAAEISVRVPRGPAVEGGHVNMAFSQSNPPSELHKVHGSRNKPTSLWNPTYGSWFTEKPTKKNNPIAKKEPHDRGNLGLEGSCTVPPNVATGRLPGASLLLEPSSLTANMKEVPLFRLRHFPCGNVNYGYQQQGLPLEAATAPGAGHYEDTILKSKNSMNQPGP
# experimental protocol: KINOMEscan competition binding
# conditions used: compound 10.0 µM
reported endpoint: kinase still bound, per cent of control (%)

COc1ccc(-c2ccc3c(N4CCOCC4)nc(N4C[C@@H](C)O[C@@H](C)C4)nc3n2)cc1CO
100
COC(=O)Nc1ccc(-c2nc(N3CCOCC3)c3cnn(C4CCN(C(=O)OC)CC4)c3n2)cc1
100
CCC(=O)N1CCN(c2ccc(-n3c(=O)ccc4cnc5ccc(-c6cnc7ccccc7c6)cc5c43)cc2C(F)(F)F)CC1
80
CC(C)n1nc(-c2cc3cc(O)ccc3[nH]2)c2c(N)ncnc21
41

###

// values below are reported per cent of control
# target system: UniProt:Q9P289
# Sequence (Q9P289 whole entry, looked up): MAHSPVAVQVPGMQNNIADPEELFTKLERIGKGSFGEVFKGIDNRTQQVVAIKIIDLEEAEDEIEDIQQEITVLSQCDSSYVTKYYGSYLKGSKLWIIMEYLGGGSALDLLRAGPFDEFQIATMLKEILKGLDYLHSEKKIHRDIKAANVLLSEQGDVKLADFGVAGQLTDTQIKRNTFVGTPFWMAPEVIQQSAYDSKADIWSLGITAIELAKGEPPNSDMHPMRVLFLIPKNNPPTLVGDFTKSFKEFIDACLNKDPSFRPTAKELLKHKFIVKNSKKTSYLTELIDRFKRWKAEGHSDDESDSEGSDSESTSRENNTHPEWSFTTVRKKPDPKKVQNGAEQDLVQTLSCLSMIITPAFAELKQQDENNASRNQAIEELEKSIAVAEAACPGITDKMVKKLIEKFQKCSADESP
# conditions used: compound 1.0 µM
reported endpoint: per cent of control (%)

CC(C)n1nc(-c2cc3cc(O)ccc3[nH]2)c2c(N)ncnc21
42
COc1ccc(-c2ccc3c(N4CCOCC4)nc(N4C[C@@H](C)O[C@@H](C)C4)nc3n2)cc1CO
87
CCC(=O)N1CCN(c2ccc(-n3c(=O)ccc4cnc5ccc(-c6cnc7ccccc7c6)cc5c43)cc2C(F)(F)F)CC1
96
COC(=O)Nc1ccc(-c2nc(N3CCOCC3)c3cnn(C4CCN(C(=O)OC)CC4)c3n2)cc1
88

###

# target system: PIM3 (human) (UniProt Q86V86)
# conditions used: compound 1.0 µM
reported endpoint: per cent of control

CC(C)n1nc(-c2cc3cc(O)ccc3[nH]2)c2c(N)ncnc21
59%
COC(=O)Nc1ccc(-c2nc(N3CCOCC3)c3cnn(C4CCN(C(=O)OC)CC4)c3n2)cc1
87%
COc1ccc(-c2ccc3c(N4CCOCC4)nc(N4C[C@@H](C)O[C@@H](C)C4)nc3n2)cc1CO
114%
CCC(=O)N1CCN(c2ccc(-n3c(=O)ccc4cnc5ccc(-c6cnc7ccccc7c6)cc5c43)cc2C(F)(F)F)CC1
85%

###

# target system: PKN3 (M.tuberculosis) (UniProt Q6P5Z2)
# Sequence (Q6P5Z2 whole entry, looked up): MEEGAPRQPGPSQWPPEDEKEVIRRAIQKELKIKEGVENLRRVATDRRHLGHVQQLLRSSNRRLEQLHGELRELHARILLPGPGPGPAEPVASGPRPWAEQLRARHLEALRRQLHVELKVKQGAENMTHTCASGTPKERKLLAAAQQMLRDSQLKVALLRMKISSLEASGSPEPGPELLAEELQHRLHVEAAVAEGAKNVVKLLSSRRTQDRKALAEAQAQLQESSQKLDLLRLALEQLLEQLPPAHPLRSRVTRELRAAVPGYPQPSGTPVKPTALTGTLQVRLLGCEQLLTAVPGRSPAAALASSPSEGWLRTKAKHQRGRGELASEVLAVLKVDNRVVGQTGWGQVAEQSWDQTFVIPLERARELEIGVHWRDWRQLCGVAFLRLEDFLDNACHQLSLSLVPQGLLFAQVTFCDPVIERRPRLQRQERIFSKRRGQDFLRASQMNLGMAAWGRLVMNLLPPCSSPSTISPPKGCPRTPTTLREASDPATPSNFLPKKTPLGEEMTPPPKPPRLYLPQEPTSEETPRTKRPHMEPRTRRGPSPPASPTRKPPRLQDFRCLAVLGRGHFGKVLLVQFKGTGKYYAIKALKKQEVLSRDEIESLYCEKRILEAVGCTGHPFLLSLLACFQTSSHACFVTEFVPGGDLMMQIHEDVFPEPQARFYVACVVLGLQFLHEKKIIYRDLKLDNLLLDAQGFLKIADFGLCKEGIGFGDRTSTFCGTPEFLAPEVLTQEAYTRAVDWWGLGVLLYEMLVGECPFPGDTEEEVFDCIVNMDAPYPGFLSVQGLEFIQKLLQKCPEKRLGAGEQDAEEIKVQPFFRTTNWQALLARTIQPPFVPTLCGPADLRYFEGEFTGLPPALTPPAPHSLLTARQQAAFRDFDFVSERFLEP
# experimental protocol: KINOMEscan competition binding
# conditions used: compound 10.0 µM
Listed below: kinase still bound, per cent of control values for each entry.
reported endpoint: kinase still bound, per cent of control (%)

CCC(=O)N1CCN(c2ccc(-n3c(=O)ccc4cnc5ccc(-c6cnc7ccccc7c6)cc5c43)cc2C(F)(F)F)CC1
64
CC(C)n1nc(-c2cc3cc(O)ccc3[nH]2)c2c(N)ncnc21
24
COc1ccc(-c2ccc3c(N4CCOCC4)nc(N4C[C@@H](C)O[C@@H](C)C4)nc3n2)cc1CO
100
COC(=O)Nc1ccc(-c2nc(N3CCOCC3)c3cnn(C4CCN(C(=O)OC)CC4)c3n2)cc1
73

###

Listed here: items and their measured kinase still bound, per cent of control.
# target system: UniProt:O95382
# experimental protocol: KINOMEscan competition binding
# conditions used: compound 10.0 µM
reported endpoint: kinase still bound, per cent of control (%)

COC(=O)Nc1ccc(-c2nc(N3CCOCC3)c3cnn(C4CCN(C(=O)OC)CC4)c3n2)cc1
95
COc1ccc(-c2ccc3c(N4CCOCC4)nc(N4C[C@@H](C)O[C@@H](C)C4)nc3n2)cc1CO
91
CC(C)n1nc(-c2cc3cc(O)ccc3[nH]2)c2c(N)ncnc21
85
CCC(=O)N1CCN(c2ccc(-n3c(=O)ccc4cnc5ccc(-c6cnc7ccccc7c6)cc5c43)cc2C(F)(F)F)CC1
100

###

# target system: PRPF4B (human)
# experimental protocol: KINOMEscan competition binding
# conditions used: compound 10.0 µM
reported endpoint: kinase still bound, per cent of control (%)

COC(=O)Nc1ccc(-c2nc(N3CCOCC3)c3cnn(C4CCN(C(=O)OC)CC4)c3n2)cc1
100
COc1ccc(-c2ccc3c(N4CCOCC4)nc(N4C[C@@H](C)O[C@@H](C)C4)nc3n2)cc1CO
100
CCC(=O)N1CCN(c2ccc(-n3c(=O)ccc4cnc5ccc(-c6cnc7ccccc7c6)cc5c43)cc2C(F)(F)F)CC1
100
CC(C)n1nc(-c2cc3cc(O)ccc3[nH]2)c2c(N)ncnc21
90

###

# target system: CAMKK2 (human)
# conditions used: compound 1.0 µM
// reported per cent of control for each item listed
reported endpoint: per cent of control (%)

CC(C)n1nc(-c2cc3cc(O)ccc3[nH]2)c2c(N)ncnc21
72
CCC(=O)N1CCN(c2ccc(-n3c(=O)ccc4cnc5ccc(-c6cnc7ccccc7c6)cc5c43)cc2C(F)(F)F)CC1
95
COc1ccc(-c2ccc3c(N4CCOCC4)nc(N4C[C@@H](C)O[C@@H](C)C4)nc3n2)cc1CO
108
COC(=O)Nc1ccc(-c2nc(N3CCOCC3)c3cnn(C4CCN(C(=O)OC)CC4)c3n2)cc1
102

###

Here the recorded kinase still bound, per cent of control is given for each entry.
# target system: MAP2K6 (human) (UniProt P52564)
# Sequence (P52564 whole entry, looked up): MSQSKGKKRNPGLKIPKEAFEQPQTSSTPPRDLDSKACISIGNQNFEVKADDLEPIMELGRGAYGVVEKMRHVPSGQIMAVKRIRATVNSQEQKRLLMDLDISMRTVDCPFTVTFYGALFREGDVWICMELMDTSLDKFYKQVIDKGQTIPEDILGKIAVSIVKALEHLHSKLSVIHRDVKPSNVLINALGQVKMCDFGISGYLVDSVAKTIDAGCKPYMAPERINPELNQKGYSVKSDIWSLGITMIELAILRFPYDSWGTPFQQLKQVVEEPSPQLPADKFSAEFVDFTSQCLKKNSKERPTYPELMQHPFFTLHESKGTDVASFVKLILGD
# experimental protocol: KINOMEscan competition binding
# conditions used: compound 10.0 µM
reported endpoint: kinase still bound, per cent of control (%)

COc1ccc(-c2ccc3c(N4CCOCC4)nc(N4C[C@@H](C)O[C@@H](C)C4)nc3n2)cc1CO
83
CC(C)n1nc(-c2cc3cc(O)ccc3[nH]2)c2c(N)ncnc21
70
COC(=O)Nc1ccc(-c2nc(N3CCOCC3)c3cnn(C4CCN(C(=O)OC)CC4)c3n2)cc1
90
CCC(=O)N1CCN(c2ccc(-n3c(=O)ccc4cnc5ccc(-c6cnc7ccccc7c6)cc5c43)cc2C(F)(F)F)CC1
100

###

In this section, each of the compounds is paired with its reported per cent of control.
# target system: EPHA2 (human) (UniProt P29317)
# Sequence (P29317 whole entry, looked up): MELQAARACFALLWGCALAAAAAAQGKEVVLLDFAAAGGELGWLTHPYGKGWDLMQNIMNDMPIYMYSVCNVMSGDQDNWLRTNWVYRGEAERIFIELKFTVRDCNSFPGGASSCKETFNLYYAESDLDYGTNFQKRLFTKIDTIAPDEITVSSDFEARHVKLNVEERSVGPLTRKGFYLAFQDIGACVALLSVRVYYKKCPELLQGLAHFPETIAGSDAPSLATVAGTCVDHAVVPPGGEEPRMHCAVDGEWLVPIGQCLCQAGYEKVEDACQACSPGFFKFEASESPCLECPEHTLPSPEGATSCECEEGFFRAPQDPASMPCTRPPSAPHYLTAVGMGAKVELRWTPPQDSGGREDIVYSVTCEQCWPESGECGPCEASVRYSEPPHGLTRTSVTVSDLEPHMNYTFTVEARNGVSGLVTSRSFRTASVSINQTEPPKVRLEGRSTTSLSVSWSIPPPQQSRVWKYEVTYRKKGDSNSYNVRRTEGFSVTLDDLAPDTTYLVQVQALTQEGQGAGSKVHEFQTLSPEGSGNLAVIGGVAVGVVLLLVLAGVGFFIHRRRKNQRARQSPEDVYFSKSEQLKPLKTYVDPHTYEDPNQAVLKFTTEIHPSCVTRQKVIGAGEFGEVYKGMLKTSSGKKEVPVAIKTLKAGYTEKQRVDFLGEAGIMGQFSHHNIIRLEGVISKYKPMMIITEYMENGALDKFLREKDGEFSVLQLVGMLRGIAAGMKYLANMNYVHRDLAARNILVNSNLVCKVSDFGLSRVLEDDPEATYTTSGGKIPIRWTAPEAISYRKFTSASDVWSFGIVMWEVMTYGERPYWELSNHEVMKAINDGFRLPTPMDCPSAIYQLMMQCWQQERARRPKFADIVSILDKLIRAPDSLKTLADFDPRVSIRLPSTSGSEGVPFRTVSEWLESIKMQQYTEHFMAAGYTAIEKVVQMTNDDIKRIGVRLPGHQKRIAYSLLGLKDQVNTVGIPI
# conditions used: compound 10.0 µM
reported endpoint: per cent of control (%)

COC(=O)Nc1ccc(-c2nc(N3CCOCC3)c3cnn(C4CCN(C(=O)OC)CC4)c3n2)cc1
104
COc1ccc(-c2ccc3c(N4CCOCC4)nc(N4C[C@@H](C)O[C@@H](C)C4)nc3n2)cc1CO
96
CC(C)n1nc(-c2cc3cc(O)ccc3[nH]2)c2c(N)ncnc21
3
CCC(=O)N1CCN(c2ccc(-n3c(=O)ccc4cnc5ccc(-c6cnc7ccccc7c6)cc5c43)cc2C(F)(F)F)CC1
87

###

Entries annotated with measured per cent of control
# target system: MKNK2 (human) (UniProt Q9HBH9)
# Sequence (Q9HBH9 whole entry, looked up): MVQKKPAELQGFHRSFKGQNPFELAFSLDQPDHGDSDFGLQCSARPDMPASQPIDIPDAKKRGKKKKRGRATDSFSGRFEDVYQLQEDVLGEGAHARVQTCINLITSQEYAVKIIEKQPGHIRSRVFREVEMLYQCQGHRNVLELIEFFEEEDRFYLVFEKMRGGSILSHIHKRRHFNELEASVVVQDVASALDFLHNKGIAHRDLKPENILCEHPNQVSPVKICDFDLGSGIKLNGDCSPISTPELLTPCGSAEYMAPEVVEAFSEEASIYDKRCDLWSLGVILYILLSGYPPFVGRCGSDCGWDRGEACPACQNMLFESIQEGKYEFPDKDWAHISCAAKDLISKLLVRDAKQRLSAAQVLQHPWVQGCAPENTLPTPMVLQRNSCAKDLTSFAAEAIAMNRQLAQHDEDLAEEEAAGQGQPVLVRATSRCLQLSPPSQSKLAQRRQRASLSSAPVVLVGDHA
# conditions used: compound 10.0 µM
reported endpoint: per cent of control (%)

CCC(=O)N1CCN(c2ccc(-n3c(=O)ccc4cnc5ccc(-c6cnc7ccccc7c6)cc5c43)cc2C(F)(F)F)CC1
96
COC(=O)Nc1ccc(-c2nc(N3CCOCC3)c3cnn(C4CCN(C(=O)OC)CC4)c3n2)cc1
93
COc1ccc(-c2ccc3c(N4CCOCC4)nc(N4C[C@@H](C)O[C@@H](C)C4)nc3n2)cc1CO
92
CC(C)n1nc(-c2cc3cc(O)ccc3[nH]2)c2c(N)ncnc21
42

###

# target system: TAOK1 (human) (UniProt Q7L7X3)
# experimental protocol: KINOMEscan competition binding
# conditions used: compound 10.0 µM
Recorded kinase still bound, per cent of control, one value per entry.
reported endpoint: kinase still bound, per cent of control (%)

CCC(=O)N1CCN(c2ccc(-n3c(=O)ccc4cnc5ccc(-c6cnc7ccccc7c6)cc5c43)cc2C(F)(F)F)CC1
58
COc1ccc(-c2ccc3c(N4CCOCC4)nc(N4C[C@@H](C)O[C@@H](C)C4)nc3n2)cc1CO
83
COC(=O)Nc1ccc(-c2nc(N3CCOCC3)c3cnn(C4CCN(C(=O)OC)CC4)c3n2)cc1
83
CC(C)n1nc(-c2cc3cc(O)ccc3[nH]2)c2c(N)ncnc21
0.2

Just for reference, the kinase profiling compilation of Christmann-Franck et al. (2016) is where these values come from.
